Biological target: TGF-beta receptor type-1 (Homo sapiens, UniProt P36897)
Test: Binding affinity to Activin A receptor type II-like kinase (ALK5) in fluorescence polarization binding assay; Range is (0.029-0.032)
measurement.label: IC50
Record the result as a number with its unit.

Supply IC50 value. Item: c1ccc(-c2n[nH]cc2-c2ccc3ncccc3n2)nc1
30 nM

* * *

Target: Mitogen-activated protein kinase 8 (Homo sapiens, UniProt P45983)
Sequence (P45983 whole entry): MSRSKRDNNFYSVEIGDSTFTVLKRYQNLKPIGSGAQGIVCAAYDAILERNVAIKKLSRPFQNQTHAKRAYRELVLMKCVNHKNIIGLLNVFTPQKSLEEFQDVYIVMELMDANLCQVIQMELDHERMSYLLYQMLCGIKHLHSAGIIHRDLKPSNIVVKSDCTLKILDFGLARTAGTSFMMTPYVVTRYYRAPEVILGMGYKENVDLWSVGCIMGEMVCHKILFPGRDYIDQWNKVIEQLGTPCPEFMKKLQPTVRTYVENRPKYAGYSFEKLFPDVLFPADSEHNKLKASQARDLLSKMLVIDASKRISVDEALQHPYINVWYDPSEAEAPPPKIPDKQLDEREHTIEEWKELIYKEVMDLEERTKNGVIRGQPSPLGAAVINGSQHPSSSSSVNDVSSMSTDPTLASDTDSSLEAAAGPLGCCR
Assay: Inhibition of c-Jun N-terminal kinase 1-alpha 1 binding in fluorescence polarization assay
measurement.label: IC50

Supply IC50 value. Item: Cc1cccc(-c2n[nH]cc2-c2ccc3ncccc3n2)n1 [GW786460X]
> 16 µM

* * *

Biological target: TGF-beta receptor type-1 (Homo sapiens)
Experiment: Binding affinity to Activin A receptor type II-like kinase (ALK5) in fluorescence polarization binding assay; Range is (0.289-3.621)
measurement.label: IC50 (nM)
Reply numerically in nM, unit not repeated.

Supply IC50 value. Item: Nc1nc(-c2cc(Cl)ccn2)c(-c2ccnc3ccccc23)s1
1020

* * *

Biological target: TGF-beta receptor type-1 (Homo sapiens, UniProt P36897)
Sequence (P36897 whole entry): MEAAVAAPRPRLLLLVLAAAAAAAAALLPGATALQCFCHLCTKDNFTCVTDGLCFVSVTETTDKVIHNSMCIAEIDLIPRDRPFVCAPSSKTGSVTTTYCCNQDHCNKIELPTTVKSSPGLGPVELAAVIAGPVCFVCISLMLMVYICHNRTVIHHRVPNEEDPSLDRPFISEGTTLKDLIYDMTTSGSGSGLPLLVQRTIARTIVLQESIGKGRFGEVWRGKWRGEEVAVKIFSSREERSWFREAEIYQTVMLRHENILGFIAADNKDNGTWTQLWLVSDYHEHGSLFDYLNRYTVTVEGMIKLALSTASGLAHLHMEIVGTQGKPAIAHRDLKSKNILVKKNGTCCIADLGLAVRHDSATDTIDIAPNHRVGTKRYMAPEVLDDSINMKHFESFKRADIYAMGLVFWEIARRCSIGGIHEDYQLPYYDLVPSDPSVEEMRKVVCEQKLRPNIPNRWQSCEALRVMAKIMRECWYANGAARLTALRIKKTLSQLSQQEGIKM
Assay: Binding affinity to Activin A receptor type II-like kinase (ALK5) in fluorescence polarization binding assay; Range is (5.326-22.574)
measurement.label: IC50 (µM)
Reply numerically in µM, unit not repeated.

Supply IC50 value. Item: Nc1nc(-c2ccccn2)c(-c2cccc3ccccc23)s1
11

* * *

Listed here: items and their measured IC50.
Molecular target: TGF-beta receptor type-1 (Homo sapiens)
Test: Inhibition of recombinant Activin A receptor type II-like kinase (ALK5) expressed in baculovirus/Sf9 cells
Type: cell-based
Reply numerically in nM, unit not repeated.

| compound | unit.string | IC50 |
| --- | --- | --- |
| Nc1nc(-c2ccc(F)cc2)c(-c2ccc3ncccc3n2)s1 [GW785804X] | nM | 10 |
| Nc1nc(-c2cccc(Cl)c2)c(-c2ccc3ncccc3n2)s1 [GW780159X] | nM | 10 |
| Nc1nc(-c2ccccn2)c(-c2ccc3ncccc3n2)s1 [GW693481X] | nM | 20 |

Let us move to another entry and its IC50.
Supply IC50 value. Item: c1ccc(-c2n[nH]cc2-c2ccc3ncccc3n2)nc1
19

* * *

Target: UniProt:P36897
Assay: Binding affinity to Activin A receptor type II-like kinase (ALK5) in fluorescence polarization binding assay; Range is (0.038-0.042)
measurement.label: IC50 (nM)
Reply numerically in nM, unit not repeated.

Supply IC50 value. Item: Nc1nc(-c2ccccn2)c(-c2ccc3ncccc3n2)s1 [GW693481X]
40
